Recorded variant/HC_D62R values for a group of binders are listed next.
- ASSAYED SYSTEM: T1, mouse tissue factor pathway inhibitor (TFPI) (mouse, UniProt O54819 29-289, limits assumed)
- T1 construct: bought; also called mTFPI; murine TFPI
- T1 sequence (looked up): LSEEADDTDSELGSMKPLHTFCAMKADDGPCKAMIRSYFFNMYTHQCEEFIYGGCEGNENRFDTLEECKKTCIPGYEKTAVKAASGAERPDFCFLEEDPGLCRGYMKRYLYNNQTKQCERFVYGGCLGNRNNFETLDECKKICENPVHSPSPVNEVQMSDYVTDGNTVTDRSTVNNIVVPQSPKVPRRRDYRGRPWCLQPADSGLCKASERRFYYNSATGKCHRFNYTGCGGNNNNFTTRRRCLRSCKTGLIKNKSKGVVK
- TEST DESCRIPTION: competitive ELISA
Number in ratio, nothing else.

Observe how each entry below is paired with its result.
{"BINDER": "4B7 HC N32D+D62R+Y112D/LC F31I+D33F+N35I+D97T (Fab, V domains shown) VH: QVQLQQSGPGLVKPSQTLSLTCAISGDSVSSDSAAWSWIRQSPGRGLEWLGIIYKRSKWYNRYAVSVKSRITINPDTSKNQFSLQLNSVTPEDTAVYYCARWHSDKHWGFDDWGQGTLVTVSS VL: DIVMTQSPLSLPVTPGEPASISCRSSQSLVISFGITYLNWYLQKPGQSPQLLIYKGSNRASGVPDRFSGSGSGTDFTLKISRVEAEDVGVYYCQQYTSYPLTFGQGTKVEIKR", "variant/HC_D62R [ratio]": 11.9}
{"BINDER": "4B7 HC N32D+D62R+Y112D/LC M4L+S32R+D33F+N35I+D97T (Fab, V domains shown) VH: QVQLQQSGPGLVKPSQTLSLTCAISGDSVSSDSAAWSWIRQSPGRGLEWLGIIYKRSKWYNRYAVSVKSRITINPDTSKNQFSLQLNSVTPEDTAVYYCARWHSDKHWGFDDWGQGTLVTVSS VL: DIVLTQSPLSLPVTPGEPASISCRSSQSLVFRFGITYLNWYLQKPGQSPQLLIYKGSNRASGVPDRFSGSGSGTDFTLKISRVEAEDVGVYYCQQYTSYPLTFGQGTKVEIKR", "variant/HC_D62R [ratio]": 23.9}

Proceed to the following item.
Exercise: Return variant/HC_D62R (reported value) for this binder: 4B7 HC N32D+D62Q+H107M+Y112D/LC S32R+D33F (Fab, V domains shown) VH: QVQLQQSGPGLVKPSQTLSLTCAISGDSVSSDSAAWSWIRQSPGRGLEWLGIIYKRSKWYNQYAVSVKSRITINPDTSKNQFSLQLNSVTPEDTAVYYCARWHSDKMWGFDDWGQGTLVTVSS VL: DIVMTQSPLSLPVTPGEPASISCRSSQSLVFRFGNTYLNWYLQKPGQSPQLLIYKGSNRASGVPDRFSGSGSGTDFTLKISRVEAEDVGVYYCQQYDSYPLTFGQGTKVEIKR
Key: 16.9
